B1: Transcription factor SOX-4, residues 60 to 127; numbered along this chain, Q06945 (parent)
chain: KRPMNAFMVWSQIERRKIMEQSPDMHNAEISKRLGKRWKLLKDSDKIPFIREAERLRLKHMADYPDYK

- Variants of: B1
- assayInfo: abundance fitness (aPCA) (normalised: wild type 0, dead -1); higher = more abundant; growth selection in yeast, the domain comes from the species named
- assayConditions: Homo sapiens
Mark 0.0 for abundance fitness values under -0.2, and 1.0 for everything at or above.

Some solved entries appear below for comparison.
[[record]]
variantdesignation = "L58H"
answerlabel = 1.0

[[record]]
variantdesignation = "K39H"
answerlabel = 0.0

[[record]]
variantdesignation = "S22Y"
answerlabel = 1.0

[[record]]
variantdesignation = "K59T"
answerlabel = 1.0

[[record]]
variantdesignation = "K46F"
answerlabel = 0.0


# bool: abundance fitness of R55L >= -0.2
0.0

Consider next the variant Y67V in the same way.
1.0

Consider next the variant S31C in the same way.
1.0

Consider next the variant D63Y in the same way.
0.0

Consider next the variant D45S in the same way.
0.0

Consider next the variant D24C in the same way.
0.0

Every entry's value here was drawn from the Human Domainome abundance scans (Beltran et al. 2025).
